- assay: in vivo
- test_settings: male, Sprague Dawley, rat, inhaled or intranasal, 0.4 mg/kg
measurement_name: AUC(0-t)

**Q:** Need AUC(0-t), item `COc1ccc(-c2cncc(N[C@@H](C)c3cccc(NC(=O)c4cncc(C)c4)c3)n2)cc1OC`
**A:** 1940 ng·h/mL

====

- assay: in vivo
- test_settings: male, Sprague Dawley, rat, inhaled or intranasal, 0.4 mg/kg
measurement_name: AUC(0-inf)

**Q:** I'd like to know its AUC(0-inf). The molecule in question is `COc1ccc(-c2cncc(N[C@@H](C)c3cccc(NC(=O)c4cncc(C)c4)c3)n2)cc1OC`
**A:** 2130 ng·h/mL

Where do these numbers come from? They come from patent US10231966B2.
